All values here come from ChEMBL document CHEMBL1201862.

Tested on: CCRF-CEM
Assay: NCI tumour cell line growth inhibition, 48 h
Calls of active or inactive are those of the source. No stated cut-off is given here; in the data, active = GI50 up to about 1.1 µM and inactive = higher. Where a SMILES comes first, the peptide text is derived from it. The star is where a group is joined. CH2Cl = ClC*
Outcome codes: Yes = active, No = inactive

COMPOUND | ASSIGNED LABEL
O=C(c1c(F)c(F)c(F)c(F)c1F)c1c(F)c(F)c(F)c(F)c1F | Yes
C/C(=N/NC(=O)C[n+]1ccccc1)C(CN(CC(C)C)CC(C)C)C(=O)Nc1ccc(C)cc1C (stereo not given) | No
COC(=O)C1=C(C(=O)OC)N(c2ccncc2)C(c2ccco2)=CC1c1ccccc1[N+](=O)[O-] (stereo not given) | No
CC(=O)NC(CC(C)C)C(=O)NC(Cc1ccccc1)C(=O)CCl (stereo not drawn) (Ac-Leu-Phe-CH2Cl; configuration not given here) | No
O=C(O)C1CC(c2ccccc2)=NN1c1ccccc1 (stereo not given) | No
Cn1c(=O)nc2n(-c3ccc(Cl)cc3)c3cc(Cl)ccc3nc-2c1=O | No
C/C(=N\[N+](C)(C)C)c1ccc(C)c(C)c1 | No
CCC1CN2CCc3cc(OC)c(OC)cc3C2CC1CC1c2cc(OC)c(OC)cc2CCN1C(=O)C1CCCN1 (stereo not given) | No
C=CCc1cc2cccc(OC)c2oc1=O | No
COc1ccc(/C=C2\N/C(=N\N=C/C(O)C(O)C(O)C(O)CO)NC2=O)cc1 (stereo not given) | No

---

// values below are reported GI50
System: T47D
Test: NCI tumour cell line growth inhibition, 48 h
Active and inactive are the calls of the source. Rule as the data show it: active = GI50 up to about 1.1 µM and inactive = higher.

MOLECULE | ASSAYED TARGET | GI50
CCOC(=O)Cc1nc2nn(Cc3ccccc3)cc2c(=O)[nH]1 | T47D | > 100 µM (inactive)
O=C(O)C[C@@H]1[C@@H](O)[C@@H](O)CN2C(=O)c3ccccc3[C@H]12 | T47D | > 100 µM (inactive)
C=C1CC(COc2ccc3c(C)c(C)c(=O)oc3c2C)(c2ccccc2)OC1=O (stereo unspecified) | T47D | 2.07 µM (inactive)
CSc1c(C(=O)Nc2ccc(Cl)cc2)c(N)n(N)c(=O)c1C#N | T47D | 31.3 µM (inactive)
Clc1ccc(Nc2nc(Cl)c3nc[nH]c3n2)cc1Cl | T47D | 14.2 µM (inactive)
COC(=O)c1ccc(C)cc1C1CN=NC12Cc1cccc(C)c1C2=O (stereo unspecified) | T47D | 24.9 µM (inactive)
CCn1c(-c2ccccc2)nc2c1C(=O)c1ccccc1C2=O | T47D | 2.22 µM (inactive)
COc1cc(NC=C2C(=O)OC(C)(C)OC2=O)c(OC)c(C)c1OC | T47D | > 100 µM (inactive)
COc1ccc(/C=C(/C#N)C(N)=O)cc1OC | T47D | > 100 µM (inactive)
CO[C@]1(c2ccc([N+](=O)[O-])cc2)Oc2ccccc2C(=O)[C@@]1(Nc1ccc(C=O)cc1)OC | T47D | > 10 µM (inactive)
CCCC(=O)NC(C(=O)OCC)(N1CCOCC1)C(F)(F)F (stereo unspecified) | T47D | > 100 µM (inactive)

---

System: OVCAR-5
Assay: NCI tumour cell line growth inhibition, 48 h
Calls of active or inactive are those of the source. No stated cut-off is given here; in the data, active = GI50 up to about 1.1 µM and inactive = higher.
The compounds listed here are annotated with their GI50.
REPORTED PROPERTY: GI50

COMPOUND | REPORTED PROPERTY | RESULT
CCO/C(=N/S(=O)(=O)C(F)(F)F)N(C(C)C)C(C)C | GI50 | > 100 µM (inactive)
Clc1ccc(Nc2nc(Cl)c3nc[nH]c3n2)cc1Cl | GI50 | 48.8 µM (inactive)
Cn1c2ccc([N+](=O)[O-])cc2c(=O)n1Cc1ccccc1F | GI50 | 46.3 µM (inactive)
CC1CC(N)=Nc2ccccc2N1 (centres undefined) | GI50 | > 100 µM (inactive)
Cc1ccc2c(c1)C/C(=C\c1ccccc1C(=O)O)C2=O | GI50 | > 100 µM (inactive)
Cc1cc(C)c(O)c(CN2CCN(C(C)C)CCN(C(C)C)CC2)c1 | GI50 | 18.7 µM (inactive)
CC1CC2C3CCC4=CC(=O)C=CC4(C)C3(F)C(O)CC2(C)C1(O)C(=O)CO.Cc1cc(NS(=O)(=O)c2ccc(/N=N\c3cc(/N=N/c4ccc(S(=O)(=O)Nc5cc(C)nc(C)n5)cc4)c(OC(=O)C(Cl)Cl)c4cccc(NC(=O)C(Cl)Cl)c34)cc2)nc(C)n1 | GI50 | 16.6 µM (inactive)
N#C/C(=C\c1cc(O)cc(O)c1)C(N)=O | GI50 | > 100 µM (inactive)
CCCCC/N=C/c1c(O)c(O)c(C(C)C)c2cc(C)c(-c3c(C)cc4c(C(C)C)c(O)c(O)c(/C=N/CCCCC)c4c3O)c(O)c12 | GI50 | 19 µM (inactive)
